FYI, the data here is from PubChem BioAssay AID372.

assay_target: Gag-Pol polyprotein (Human immunodeficiency virus type 1 group M subtype B (isolate HXB2))
test_protocol: RNase H inhibition, HIV 1 Gag Pol polyprotein, FRET biochemical assay, screening (AID 372)
measurement_parameters: HIV-1 RT RNase H, FRET RNA/DNA substrate fluorescence; at 10 µM; active compounds read high
About 770 (0.77%) of roughly 100,000 compounds were called active. The list comes from a sample in which actives are over-represented; it also holds close analogues and randomly drawn compounds.
Label Satisfied when inhibition is at or above 8%; otherwise label Not satisfied.

| compound | assigned_category |
| --- | --- |
| Ic1cccc(-c2nc(-c3ccncc3)no2)c1 | Satisfied |
| CCOC(=O)c1c(C)oc2ccc(N(C(=O)c3ccncc3)S(=O)(=O)c3ccc(C)cc3)cc12 | Satisfied |
| O=c1c(-c2ccccc2Cl)coc2c(O)c(O)ccc12 | Satisfied |
| Cc1oc2c(C)c(O)ccc2c(=O)c1-c1ccccc1Cl | Satisfied |
| COc1ccc(-c2noc(-c3cccc(I)c3)n2)cc1 | Satisfied |
| O=C(N/C(=C/c1cccc(Br)c1)C(=O)N1CCOCC1)c1ccccc1 | Not satisfied |
| CCOC(=O)c1c(C)oc2ccc(OC(=O)c3ccc(C)cc3)cc12 | Not satisfied |
| CCOC(=O)CC1(c2ccccc2)SC(NC(C)=O)=NN1C(C)=O (stereo unspecified) | Not satisfied |
| Ic1cccc(-c2nc(-c3cccnc3)no2)c1 | Satisfied |
| Cc1ccc(-c2noc(-c3cccc(I)c3)n2)cc1 | Not satisfied |
